tested_target: NADPH oxidase 4 (Homo sapiens)
test_method_notes: NOX4-dependent H2O2 signal modulators, primary screen, NOX inhibitor project, cell-based, HEK293-NOX4, tetracycline-induced, Amplex Red fluorescence (AID 1160)
experimental_setup: 45 min, higher = more signal, called active from +8 up or from −8 down
measure_name: z-score
Could you keep your reply to the number by itself?

Find z-score for `COCCOC(=O)N1C(=O)[C@@]2(c3cc(C#Cc4ccc(OC)cc4)ccc31)[C@H](C(=O)Nc1nc3ccccc3s1)[C@H]1C(=O)O[C@H](c3ccccc3)[C@H](c3ccccc3)N1[C@@H]2c1ccc(OCCO)cc1` on NADPH oxidase 4 (Homo sapiens) and write it down.
-1.07

Write down measured z-score (NADPH oxidase 4 (Homo sapiens)) for this compound. `COC(=O)C(CC#Cc1ccc2c(c1)[C@]1(C(=O)N2)[C@H](c2ccccc2OCCO)N2[C@H](c3ccccc3)[C@H](c3ccccc3)OC(=O)[C@H]2[C@@H]1C(=O)NC[C@H](O)c1ccccc1)C(=O)OC`
1.03

Look up NADPH oxidase 4 (Homo sapiens) data: z-score of `C[N+](C)(C)CCCCCCNC(=O)[C@H]1C[C@H]2C(=O)N[C@@H](Cc3ccccc3)C(=O)N2[C@H]1c1ccc(O)cc1` , then report it.
1.13

Please respond with reported z-score (system NADPH oxidase 4 (Homo sapiens)) for `C=CCOC(=O)[C@H]1[C@@H]2C(=O)O[C@@H](c3ccccc3)[C@@H](c3ccccc3)N2[C@@H](c2ccc(OCCOC(=O)[C@@H]3C[C@@H]4C(=O)N[C@@H](CCCCNC(C)=O)C(=O)N4[C@@H]3c3ccc(O)cc3)cc2)[C@]12C(=O)Nc1ccc(I)cc12` .
0.351

Report the value of z-score obtained on NADPH oxidase 4 (Homo sapiens) for `COC(=O)[C@@]1(Cc2ccc(OC)cc2)[C@H]2c3cc(C(=O)N4CCCC4)n(Cc4c(-c5ccccc5)noc4C)c3C[C@H]2CN1C(=O)c1ccccc1` .
0.486

Provide the reported z-score (system: NADPH oxidase 4 (Homo sapiens)) for `C=C(CCCC)/C(=C/C[C@@H](OC(=O)c1ccncc1)c1ccccc1OCCO)c1cnc2ccccc2c1`
0.474

State z-score on NADPH oxidase 4 (Homo sapiens). Entry: `Cc1ccc(S[C@]2(C(=O)O)CC(=O)N(C3Cc4ccccc4C3)[C@@H]2c2ccc(CO)cc2)cc1`
-0.498

GET z-score where system = NADPH oxidase 4 (Homo sapiens) and item = `CCOC(=O)c1ccc(NC(=O)O[C@H]2[C@H](OC(=O)Nc3ccc4c(c3)OCO4)[C@H](OC(=O)Nc3ccc4c(c3)OCO4)[C@@H](OC)O[C@@H]2CO)cc1`
-0.54

Please tell me the measured z-score for `O=C(CS)NCCCCCNC(=O)[C@@H]1C[C@@H]2C(=O)N3CCC[C@H]3C(=O)N2[C@@H]1c1cccc(OCCO)c1` ; system: NADPH oxidase 4 (Homo sapiens).
0.231

Return reported z-score for target or system NADPH oxidase 4 (Homo sapiens), item `NCCCCCNC(=O)[C@@H]1C[C@@H]2C(=O)NCC(=O)N2[C@@H]1c1cccc(OCCO)c1` .
-0.373

Under NADPH oxidase 4 (Homo sapiens): report z-score of `C=C(C)c1cc2c(c(CCCCCC)n1)[Si](C(C)C)(C(C)C)OC2` .
-0.933

Give measured z-score for `COCCOC(=O)N1C(=O)[C@@]2(c3cc(C#Cc4ccc(OC)cc4)ccc31)[C@H](c1ccc(O)cc1)N1[C@H](c3ccccc3)[C@H](c3ccccc3)OC(=O)[C@H]1[C@@H]2C(=O)N1CCCCCCC1` (NADPH oxidase 4 (Homo sapiens)).
0.482

Specify the recorded z-score for `C=CCNC(=O)[C@H]1[C@@H]2C(=O)O[C@@H](c3ccccc3)[C@@H](c3ccccc3)N2[C@@H](c2ccc(O)cc2)[C@]12C(=O)N(C(=O)OCCOC)c1ccccc12` , system: NADPH oxidase 4 (Homo sapiens).
-0.168
